# assay-explanation: qHTS assay to identify small molecule antagonists of the progesterone receptor (PR) signaling pathway - cell viability counter screen (AID 1346798);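 further: HEK293T PR-UAS-bla cells stimulated with the agonist R5020; nearly all actives have a fitted effect of over 50% in size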
# assay-setup: PR-UAS-bla HEK293T viability, CellTiter-Glo luminescence, 16 h; series mostly up to 92.4 µM
Results filed as inconclusive are left out. Calls of active or inactive are those of the source. The call rests on the fitted dose curve; in most records, active means well fitted cell-killing curve with a large enough effect in the repeat runs; inconclusive means weak or mixed curves, or effect the other way; inactive means no such curve, though single readings can be large or run the other way.
Hi! Could you answer with just one of these? active, inactive

# example entries with known answers
{"columns": ["compound", "assigned-class"],
 "data": [
  ["C[C@]12CCC(=O)C=C1CC[C@@H]1[C@@H]2C(=O)C[C@@]2(C)[C@H]1CC[C@]2(O)C(=O)CO", "inactive"],
  ["CN1C(C(=O)Nc2ccccn2)=C(O)c2ccccc2S1(=O)=O", "inactive"],
  ["CCCCCCCCCCCO", "inactive"],
  ["COc1ccccc1/C=C/C=O", "inactive"],
  ["O=C(OCc1ccccc1)c1ccccc1O", "inactive"]
]}

Exercise: How was c1ccc2c(c1)c1cccc3ccc4cccc2c4c31 classified in this test?
Solution: inactive

Exercise: Please let me know the test result on file for Nc1ccc(S(=O)(=O)Nc2cnc3ccccc3n2)cc1 .
Solution: inactive

Exercise: Kindly provide the recorded test outcome for the following compound: NNc1ccc(C(=O)O)cc1
Solution: inactive

Exercise: Field: outcome | Entry: CC(C(=O)O)c1cccc(C(=O)c2ccccc2)c1 (centres undefined)
Solution: inactive

Exercise: // param item: c1ccc2c(c1)Oc1ccccc1S2 ; yields the recorded call
Solution: inactive

###

# assay-explanation: qHTS assay to identify small molecule antagonists of the estrogen receptor alpha (ER-alpha) signaling pathway using the BG1 cell line (AID 743080);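 further: BG1 cells stimulated with 17beta-estradiol alongside compound; nearly all actives have a fitted effect of over 25% in size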
# assay-setup: BG1Luc4E2 ERE-luciferase antagonist mode, luminescence; series mostly up to 70.3 µM
Inconclusive results are not listed. Active and inactive are the calls of the source. Calls follow the shape of the full dose curve.
Please reply with one of these outcomes: active, inactive

{"columns": ["molecule", "assigned-class"],
 "data": [
  ["CC1=CCC(C(C)(C)O)CC1 (stereo not drawn)", "inactive"],
  ["CN1C(C(=O)Nc2ccccn2)=C(O)c2ccccc2S1(=O)=O", "inactive"],
  ["CCC(C)CO (stereo not drawn)", "inactive"]
]}

Exercise: Test call, this molecule: CCCc1c(OCCCCc2nn[nH]n2)ccc(C(C)=O)c1O
Solution: inactive

Exercise: # lookup: test call for COC(=O)Nc1nc2ccc(S(=O)c3ccccc3)cc2[nH]1 (stereo not drawn)
Solution: active

Exercise: Just curious, what result did Nc1ncn([C@@H]2O[C@H](CO)[C@@H](O)[C@H]2O)c(=O)n1 get here?
Solution: inactive

Exercise: For OC1CCCCCCCCCCC1 , what call appears in the results of this test?
Solution: inactive

Exercise: Kindly provide the recorded test outcome for the following molecule: COC(=O)CCC(=O)OC
Solution: inactive

###

# assay-explanation: qHTS assay to identify small molecule agonists of the vitamin D receptor (VDR) signaling pathway - cell viability counter screen (AID 743224); further: nearly all actives have a fitted effect of over 50% in size
# assay-setup: VDR-bla HEK293T viability, CellTiter-Glo luminescence, 16 h; series mostly up to 62.6 µM
Records with an inconclusive call do not appear. The source made the active and inactive calls. The call rests on the fitted dose curve; in most records, active means well fitted cell-killing curve with a large enough effect in the repeat runs; inconclusive means weak or mixed curves, or effect the other way; inactive means no such curve, though single readings can be large or run the other way.
endpoint-label: outcome

Sample records with outcome:
{"columns": ["compound", "outcome"],
 "data": [
  ["CC1=CCC(C(C)(C)O)CC1 (centres undefined)", "inactive"],
  ["Nc1ncn([C@@H]2O[C@H](CO)[C@@H](O)[C@H]2O)c(=O)n1", "inactive"],
  ["O=[N+]([O-])c1ccc2c(c1)Cc1ccccc1-2", "inactive"],
  ["C=CC(C)(CCC=C(C)C)OC(C)=O (centres undefined)", "inactive"],
  ["CN(C)c1nc(N(C)C)nc(N(C)C)n1", "inactive"]
]}

Exercise: // fetch outcome given entry CCOCCOCCO
Solution: inactive

Exercise: Specify measured outcome for CC(C)OB(OC(C)C)OC(C)C .
Solution: inactive

Exercise: Answer with the recorded outcome of O=C1OC2(c3cc(Br)c(O)c(Br)c3Oc3c2cc(Br)c(O)c3Br)c2c(Cl)c(Cl)c(Cl)c(Cl)c21 only.
Solution: inactive

Exercise: Name the recorded outcome of the compound listed here: OC(CCl)CCl
Solution: inactive

Exercise: Complete the entry with outcome for Nc1ccc(Cl)cc1Cl
Solution: inactive

Exercise: Fill in reported outcome for this entry: Cc1cccc(N(C)C(=S)Oc2ccc3ccccc3c2)c1
Solution: inactive

Exercise: Please indicate outcome recorded for COC(=O)CCC(=O)OC
Solution: inactive

Exercise: Using the record for Cc1ccc(C)c(O)c1C , state its measured outcome.
Solution: inactive

Exercise: In one line, give reported outcome of the entry CCCCCCCCCC(=O)OC .
Solution: inactive
